# Experiment: activity coefficient (dimensionless); of the first substance listed, at infinite dilution; xn = mol fraction of the nth substance listed
# Cond: 368.15 K; 101 kPa; Liquid; Chromatography; x1 = 0
Measurement Name: activity coefficient
Please give only the number in your answer, with no unit.

Check out these entries, answers already filled in.
{"Compound": "C=Cc1ccccc1 [styrene] + COCC[N+]1(C)CCCC1.O=S(=O)([N-]S(=O)(=O)C(F)(F)F)C(F)(F)F", "Measurement Name": "activity coefficient", "Observed Result": 1.39}
{"Compound": "COC(C)(C)C [2-methoxy-2-methylpropane] + COCC[N+]1(C)CCCC1.O=S(=O)([N-]S(=O)(=O)C(F)(F)F)C(F)(F)F", "Measurement Name": "activity coefficient", "Observed Result": 2.89}
{"Compound": "C=CCCCCCCCC [1-decene] + COCC[N+]1(C)CCCC1.O=S(=O)([N-]S(=O)(=O)C(F)(F)F)C(F)(F)F", "Measurement Name": "activity coefficient", "Observed Result": 29.8}

Field: next compound
# compound c1ccsc1 [thiophene] + COCC[N+]1(C)CCCC1.O=S(=O)([N-]S(=O)(=O)C(F)(F)F)C(F)(F)F ; its activity coefficient = 0.938
